Experimental target: UniProt:P56817
Sequence (P56817 46-457): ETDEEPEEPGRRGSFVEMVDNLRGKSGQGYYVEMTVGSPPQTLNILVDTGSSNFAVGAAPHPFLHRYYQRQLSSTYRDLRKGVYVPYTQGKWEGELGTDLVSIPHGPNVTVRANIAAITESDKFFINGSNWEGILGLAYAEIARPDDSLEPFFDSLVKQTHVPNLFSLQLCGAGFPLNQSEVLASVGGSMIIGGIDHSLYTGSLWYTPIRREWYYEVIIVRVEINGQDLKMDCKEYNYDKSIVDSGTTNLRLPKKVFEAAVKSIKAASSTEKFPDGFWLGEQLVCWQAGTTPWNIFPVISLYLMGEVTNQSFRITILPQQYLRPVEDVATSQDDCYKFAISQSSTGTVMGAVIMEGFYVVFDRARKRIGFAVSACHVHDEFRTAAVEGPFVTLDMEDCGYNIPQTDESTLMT
Measurement description: BACE1 Cell-Free Assay (fluorescence polarization)
Type: biochemical
Experimental conditions: geometric mean of 2-4 determinations unless otherwise indicated (b: ≧5; c: single determination); read-out: BACE1 Cell-free Assay IC50
Where a name gives a salt, the structure may show the parent alone.
Property measured: log10 of IC50 (log10 of the value in nM)

* COc1cnc(C(=O)Nc2csc([C@]34CO[C@@H](C)C[C@H]3CSC(N)=N4)n2)cn1 | 2.73
* COc1cnc(C(=O)Nc2csc([C@]34CO[C@@H](C)C[C@H]3CSC(N)=N4)n2)c(C)n1 | 2.51
* C[C@H]1C[C@H]2CSC(N)=N[C@@]2(c2nc(NC(=O)C3CCC3)cs2)CO1 | 2.58
* C[C@H]1C[C@H]2CSC(N)=N[C@@]2(c2nc(NC(=O)c3cnc(OCC4CC4)cn3)cs2)CO1 | 2.21
* C[C@H]1C[C@H]2CSC(N)=N[C@@]2(c2nc(NC(=O)c3cnccn3)cs2)CO1 | 2.81
* Cc1nc(C(=O)Nc2csc([C@]34CO[C@@H](C)C[C@H]3CSC(N)=N4)n2)co1 | 2.01
* Cc1cc(C(=O)Nc2csc([C@]34CO[C@@H](C)C[C@H]3CSC(N)=N4)n2)no1 [Example 64, trifluoroacetate salt] | 3.42

###

Experimental target: CYP2D6 (Homo sapiens (Human), UniProt P10635)
Sequence (P10635 whole entry): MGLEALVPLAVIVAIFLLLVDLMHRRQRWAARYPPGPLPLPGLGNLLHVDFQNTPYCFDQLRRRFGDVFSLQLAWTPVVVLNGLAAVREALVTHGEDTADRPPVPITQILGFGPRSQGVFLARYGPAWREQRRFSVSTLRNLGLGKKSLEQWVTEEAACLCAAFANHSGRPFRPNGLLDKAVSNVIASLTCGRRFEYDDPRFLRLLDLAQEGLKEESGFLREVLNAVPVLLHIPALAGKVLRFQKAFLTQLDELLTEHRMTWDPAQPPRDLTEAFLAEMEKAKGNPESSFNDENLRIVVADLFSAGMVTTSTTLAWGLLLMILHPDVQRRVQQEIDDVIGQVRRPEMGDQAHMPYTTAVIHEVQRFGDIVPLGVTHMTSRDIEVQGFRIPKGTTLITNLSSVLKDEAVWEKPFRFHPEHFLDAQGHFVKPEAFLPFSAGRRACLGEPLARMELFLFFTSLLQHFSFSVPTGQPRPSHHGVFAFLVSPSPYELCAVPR
Measurement description: General Multi-Point Cocktail DDI IC50 Assay
Consider the following compounds and their measured IC50 readings.
Property measured: IC50

- C[C@H]1C[C@H]2CSC(N)=N[C@@]2(c2nc(NC(=O)c3ccc(OC(F)F)cn3)cs2)CO1 [Example 1]: > 30 µM
- Cc1cc(OC(F)F)cnc1C(=O)Nc1csc([C@]23CO[C@@H](C)C[C@H]2CSC(N)=N3)n1 [Example 45]: > 30 µM
- C[C@H]1C[C@H]2CSC(N)=N[C@@]2(c2nc(NC(=O)c3ccc(Cl)cn3)cs2)CO1 [Example 7]: > 30 µM
- C[C@H]1C[C@H]2CSC(N)=N[C@@]2(c2nc(NC(=O)c3cnc(OC(F)F)cn3)cs2)CO1 [Example 2]: > 30 µM

###

Measurement description: HLM Clint (clearance in human liver microsomes)
Format: in vitro ADME
Reported HLM CLint values for a set of molecules
Property measured: HLM CLint

* C[C@H]1C[C@H]2CSC(N)=N[C@@]2(c2cc(NC(=O)c3ccc(Cl)cn3)ccc2F)CO1 [Comparator 7, reference compound] | 34.4 mL/min/kg^
* C[C@H]1C[C@H]2CSC(N)=N[C@@]2(c2nc(NC(=O)c3ccc(Cl)cn3)cs2)CO1 | <8 mL/min/kg
* C[C@H]1C[C@H]2CSC(N)=N[C@@]2(c2nc(NC(=O)c3ccc(OC(F)F)cn3)cs2)CO1 | <8 mL/min/kg
* NC1=N[C@@]2(c3cc(NC(=O)c4ccc(OC(F)F)cn4)ccc3F)COCC[C@H]2CS1 [Comparator 4, reference compound] | 8.3 mL/min/kg
* Cc1cc(OC(F)F)cnc1C(=O)Nc1csc([C@]23CO[C@@H](C)C[C@H]2CSC(N)=N3)n1 | <8 mL/min/kg
* NC1=N[C@@]2(c3cc(NC(=O)c4ccc(OC(F)F)cn4)ccc3F)CO[C@@H](C(F)(F)F)C[C@H]2CS1 [Comparator 6, reference compound] | <12.8 mL/min/kg
* C[C@H]1C[C@H]2CSC(N)=N[C@@]2(c2nc(NC(=O)c3ccc(OC(F)F)cn3)ccc2F)CO1 [Comparator 2] | 22.9 mL/min/kg^
* C[C@H]1C[C@H]2CSC(N)=N[C@@]2(c2nc(NC(=O)c3cnc(OC(F)F)cn3)cs2)CO1 | <8 mL/min/kg
* C[C@H]1C[C@H]2CSC(N)=N[C@@]2(c2nc(NC(=O)c3ccc(OC(F)F)cn3)ccc2F)CO1 [Comparator 3, reference compound] | 19.8 mL/min/kg^

Data origin: patent US9315520B2
